Cited source: patent US9944600B2

Provide the reported activity at 10 µM of each item.
# Target Entity: human GPR119 receptor (Homo sapiens)
# Construct: host or cells: GeneBLAzer T-Rex GPR 119 CHO-K1 DA cells (CHO-K1)
# Sequence (Q8TDV5 whole entry): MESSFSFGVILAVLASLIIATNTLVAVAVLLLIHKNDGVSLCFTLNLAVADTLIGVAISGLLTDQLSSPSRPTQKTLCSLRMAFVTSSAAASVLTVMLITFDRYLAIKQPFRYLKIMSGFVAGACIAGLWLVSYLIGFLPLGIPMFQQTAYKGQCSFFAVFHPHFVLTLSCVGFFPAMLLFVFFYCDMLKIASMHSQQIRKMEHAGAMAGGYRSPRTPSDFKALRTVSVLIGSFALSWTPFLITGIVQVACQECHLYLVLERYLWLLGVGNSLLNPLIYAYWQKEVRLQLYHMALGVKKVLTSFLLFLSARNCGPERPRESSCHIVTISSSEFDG
# Experiment Summary: Activity test for human GPR119 receptor (GeneBLAzer T-Rex GPR 119 CHO-K1 DA cells, fluorescence reporter)
# Assay type: cell-based
# Condition Parameters: test compound conc. 10 μM; human GPR119 CHO-K1 reporter cells, 5 hours treatment; ratio to vehicle control well; read-out: % Activation
Give bare numbers, in %.

NC(=O)[C@@H]1CCCN1C(=O)c1ccc(-c2ccc(OCC3CCN(CC4(C(F)(F)F)CCC4)CC3)nc2)cc1 :: 273
CC(C)(F)CN1CCC(COc2ccc(-c3ccc(C(=O)N4CC[C@H](O)C4)cc3)cc2)CC1 :: 279
CC(=O)N1CCN(C(=O)c2ccc(-c3ccc(OCC4CCN(CC(C)(C)F)CC4)cc3)cc2)CC1 :: 257

State the recorded activity at 10 µM for every item in the following list.
1. CC(C)(F)CN1CCC(COc2ccc(-c3ccc(C(=O)N4CCC(F)(F)C4)cc3)cc2)CC1
2. NC(=O)[C@@H]1CCCN1C(=O)c1ccc(-c2cnc(OCC3CCN(CC4(C(F)(F)F)CCC4)CC3)cn2)cc1
3. NC(=O)[C@@H]1CCCN1C(=O)c1ccc(-c2ccc(OCC3CCN(CC4(C(F)(F)F)CCC4)CC3)nc2)cc1F
4. CS(=O)(=O)c1ccc(-c2ccc(OCC3CCN(CC4(C(F)(F)F)CC4)CC3)cc2)cc1

Ans:
[269, 340, 261, 310]
